- System Tested: Human Factor XIIa (Homo sapiens, UniProt P00748)
- Sequence (P00748 373-615 limits assumed): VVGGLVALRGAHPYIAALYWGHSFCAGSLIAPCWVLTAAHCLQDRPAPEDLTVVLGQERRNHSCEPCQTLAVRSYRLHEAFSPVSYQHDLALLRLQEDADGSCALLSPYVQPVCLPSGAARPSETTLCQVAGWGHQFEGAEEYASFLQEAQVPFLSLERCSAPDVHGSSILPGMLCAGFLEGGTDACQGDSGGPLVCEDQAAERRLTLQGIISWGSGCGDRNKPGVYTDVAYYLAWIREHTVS
- Sequence (P00748 20-372 partner limits assumed): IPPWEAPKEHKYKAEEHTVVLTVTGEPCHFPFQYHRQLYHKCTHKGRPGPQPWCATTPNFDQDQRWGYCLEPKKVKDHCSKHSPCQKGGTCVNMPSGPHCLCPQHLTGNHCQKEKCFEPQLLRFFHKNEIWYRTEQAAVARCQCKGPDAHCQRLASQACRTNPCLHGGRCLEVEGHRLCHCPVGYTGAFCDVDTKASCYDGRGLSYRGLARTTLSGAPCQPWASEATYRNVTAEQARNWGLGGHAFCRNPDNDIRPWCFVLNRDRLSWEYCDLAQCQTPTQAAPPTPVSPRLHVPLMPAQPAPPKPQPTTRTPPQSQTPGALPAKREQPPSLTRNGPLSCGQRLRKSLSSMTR
pIC50: −log10 of the molar value.
This listing pairs compounds with measured pIC50.

Look over these answered cases.
Ask: Given the compound Cc1cc(OCC23CN(C(=O)NCc4ccccc4)C(CNc4cccc5c(N)nccc45)(C2)C3)cc(=O)n1C , what is its reported pIC50?
Reply: 8.00 to 9.00

Ask: Given the compound Nc1nccc2c(NC34CC(COc5ccc6nccn6c5)(C3)C4)cccc12 , what is its reported pIC50?
Reply: 4.40 to 5.00

Ask: Given the compound Nc1nccc2c(NCC34CC(COc5ccc6c(c5)C(=O)NC6)(C3)C4)cccc12 , what is its reported pIC50?
Reply: 6.00 to 6.52

Now take the following compound into account.
Ask: Given the compound Nc1nccc2c(NCC34CC(COc5ccc6c(c5)C(=O)NC6)(CCO3)C4)cccc12 , what is its reported pIC50?
Reply: 6.00 to 6.52
